# Assay system: T1, Erbitux
# T1 construct: also called cetuximab; C225; not shown: the constant regions
# Experiment description: direct phage ELISA, proteins coated at 2 µg/ml, phage-Fab supernatant, OD450;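 note: specificity test of dual-activity clones, with binding assessed across an antigen panel to check whether each recognises only its cognate target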

| Binder | binding result |
| --- | --- |
| D1.5-121 (phage-displayed Fab clone) (Fab, V domains shown, EGFR/HER3 clone) VH: EVQLVESGGGLVQPGGSLRLSCAASGFTFTGNWIHWVRQAPGKGLEWVGEISPSGGYTDYADSVKGRFTISADTSKNTAYLQMNSLRAEDTAVYYCARESRVSYEAAMDYWGQGTLVTVSS VL: DIQMTQSPSSLSASVGDRVTITCRASQDVGSDLAWYQQKPGKAPKLLIYSASYLYSGVPSRFSGSGSGTDFTLTISSLQPEDFATYYCQQSDPEPYTFGQGTKVEIKR | no binding |
| D1.5-115 (phage-displayed Fab clone) (Fab, V domains shown, EGFR/HER3 clone) VH: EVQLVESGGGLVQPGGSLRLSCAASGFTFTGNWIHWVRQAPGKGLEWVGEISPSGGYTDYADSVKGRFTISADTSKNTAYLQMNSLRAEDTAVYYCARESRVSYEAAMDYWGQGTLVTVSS VL: DIQMTQSPSSLSASVGDRVTITCRASQEIFPDVAWYQQKPGKAPKLLIYSASSLYSGVPSRFSGSGSGTDFTLTISSLQPEDFATYYCQQAAPTPYTFGQGTKVEIKR | no binding |
| D1.5-201 (phage-displayed Fab clone) (Fab, V domains shown, EGFR/HER2 dual-specific clone from the D1.5 light chain library) VH: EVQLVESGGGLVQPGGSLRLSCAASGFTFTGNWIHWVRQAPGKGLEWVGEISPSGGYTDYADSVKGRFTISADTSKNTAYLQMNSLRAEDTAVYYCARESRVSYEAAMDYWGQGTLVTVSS VL: DIQMTQSPSSLSASVGDRVTITCRASQAVWGGYIAPVAWYQQKPGKAPKLLIYDGSYLYSGVPSRFSGSGSGTDFTLTISSLQPEDFATYYCQQRLPTPYTFGQGTKVEIKR | no binding |

Origin of the recorded values: patent US20120121596A1
